# TESTED SYSTEM: Sirt6 (Homo sapiens, UniProt Q8N6T7)
# Sequence (Q8N6T7 whole entry, species assumed): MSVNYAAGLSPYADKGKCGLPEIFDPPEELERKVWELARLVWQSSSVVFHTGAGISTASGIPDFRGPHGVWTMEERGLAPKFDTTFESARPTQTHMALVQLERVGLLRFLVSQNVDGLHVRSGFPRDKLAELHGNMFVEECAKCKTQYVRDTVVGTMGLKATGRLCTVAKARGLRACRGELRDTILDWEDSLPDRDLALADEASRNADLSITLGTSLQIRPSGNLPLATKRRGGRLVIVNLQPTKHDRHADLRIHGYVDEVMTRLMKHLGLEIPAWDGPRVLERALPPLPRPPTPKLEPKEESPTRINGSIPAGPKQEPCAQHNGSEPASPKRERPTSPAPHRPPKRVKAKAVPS
pIC50: −log10 of the molar value.
READOUT NAME: pIC50

QUERY: Fill blank: measured pIC50 of the compound CCCCN(Cc1ccc(C(=O)NO)cc1)C(=O)CCCCn1cc(COc2cccc(Cc3cnc(NC(=O)CSc4nc(C)cc(C)n4)s3)c2)nn1 is ____.
RESULT: < 3.30

----------
# TESTED SYSTEM: HDAC6 (Homo sapiens)
# Sequence (Q9UBN7 1-1215): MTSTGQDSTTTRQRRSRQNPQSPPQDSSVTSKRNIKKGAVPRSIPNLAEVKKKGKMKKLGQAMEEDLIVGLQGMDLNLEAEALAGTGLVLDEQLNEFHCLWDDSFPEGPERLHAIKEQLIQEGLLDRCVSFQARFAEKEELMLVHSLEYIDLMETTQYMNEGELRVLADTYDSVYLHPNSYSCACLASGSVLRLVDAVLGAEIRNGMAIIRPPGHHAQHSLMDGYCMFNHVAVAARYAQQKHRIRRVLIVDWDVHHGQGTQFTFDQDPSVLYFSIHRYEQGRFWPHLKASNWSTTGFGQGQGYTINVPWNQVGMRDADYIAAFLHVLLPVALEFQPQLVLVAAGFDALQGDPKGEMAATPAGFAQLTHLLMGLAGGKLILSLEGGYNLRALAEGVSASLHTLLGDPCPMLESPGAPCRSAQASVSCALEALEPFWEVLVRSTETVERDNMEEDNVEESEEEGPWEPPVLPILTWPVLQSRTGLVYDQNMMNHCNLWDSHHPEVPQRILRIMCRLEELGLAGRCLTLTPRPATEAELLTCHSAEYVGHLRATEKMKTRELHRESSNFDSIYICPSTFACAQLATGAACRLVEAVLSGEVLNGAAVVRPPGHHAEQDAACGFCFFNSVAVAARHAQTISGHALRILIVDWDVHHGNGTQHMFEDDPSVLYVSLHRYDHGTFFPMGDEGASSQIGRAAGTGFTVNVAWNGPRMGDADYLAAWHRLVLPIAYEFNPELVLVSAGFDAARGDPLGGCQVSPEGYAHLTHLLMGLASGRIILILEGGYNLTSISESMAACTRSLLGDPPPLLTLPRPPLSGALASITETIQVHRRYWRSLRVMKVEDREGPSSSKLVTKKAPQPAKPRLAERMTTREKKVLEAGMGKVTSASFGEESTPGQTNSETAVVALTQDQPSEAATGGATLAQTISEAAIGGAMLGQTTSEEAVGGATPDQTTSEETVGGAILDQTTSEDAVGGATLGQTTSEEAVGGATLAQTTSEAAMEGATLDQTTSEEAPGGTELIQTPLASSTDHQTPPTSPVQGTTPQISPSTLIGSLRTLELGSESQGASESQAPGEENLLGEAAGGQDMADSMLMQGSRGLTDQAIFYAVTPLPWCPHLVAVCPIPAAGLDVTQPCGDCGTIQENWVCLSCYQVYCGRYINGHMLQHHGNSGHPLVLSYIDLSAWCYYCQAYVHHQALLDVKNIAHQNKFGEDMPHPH
IC50 reference

Field: example entries. Status: answers known.
- COMPOUND: "CCCCN(Cc1ccc(C(=O)NO)cc1)C(=O)CCCCn1cc(COc2cccc(Cc3cnc(NC(=O)CSc4nc(C)cc(C)n4)s3)c2)nn1"
  TESTED SYSTEM: "HDAC6 (Homo sapiens)"
  IC50: "43 nM"
- COMPOUND: "O=C(NO)c1ccc(CNC(=O)c2ccccc2)cc1 [Compound 56, 4-(Benzamidomethyl)-N-hydroxybenzamide]"
  TESTED SYSTEM: "HDAC6 (Homo sapiens)"
  IC50: "18 nM"
- COMPOUND: "Cc1cc(C)nc(SCC(=O)Nc2ncc(Cc3cccc(OCc4cn(CCOCCOCCOCCOCCOCCOCCOCCOCCOCCOCCC(=O)Nc5ccc(C(=O)NCc6ccc(C(=O)NO)cc6)cc5)nn4)c3)s2)n1"
  TESTED SYSTEM: "HDAC6 (Homo sapiens)"
  IC50: "17 nM"

QUERY: What measured IC50 is associated with CC(=O)NCc1ccc(C(=O)NO)cc1 [Compound 55, 4-(Acetamidomethyl)-N-hydroxybenzamide] on HDAC6 (Homo sapiens)?
RESULT: 650 nM
